- Target System: HBV polymerase (Hepatitis B virus genotype A2 subtype adw2)
- Construct: made in house; host or cells: E. coli
- Sequence (P03159 whole entry): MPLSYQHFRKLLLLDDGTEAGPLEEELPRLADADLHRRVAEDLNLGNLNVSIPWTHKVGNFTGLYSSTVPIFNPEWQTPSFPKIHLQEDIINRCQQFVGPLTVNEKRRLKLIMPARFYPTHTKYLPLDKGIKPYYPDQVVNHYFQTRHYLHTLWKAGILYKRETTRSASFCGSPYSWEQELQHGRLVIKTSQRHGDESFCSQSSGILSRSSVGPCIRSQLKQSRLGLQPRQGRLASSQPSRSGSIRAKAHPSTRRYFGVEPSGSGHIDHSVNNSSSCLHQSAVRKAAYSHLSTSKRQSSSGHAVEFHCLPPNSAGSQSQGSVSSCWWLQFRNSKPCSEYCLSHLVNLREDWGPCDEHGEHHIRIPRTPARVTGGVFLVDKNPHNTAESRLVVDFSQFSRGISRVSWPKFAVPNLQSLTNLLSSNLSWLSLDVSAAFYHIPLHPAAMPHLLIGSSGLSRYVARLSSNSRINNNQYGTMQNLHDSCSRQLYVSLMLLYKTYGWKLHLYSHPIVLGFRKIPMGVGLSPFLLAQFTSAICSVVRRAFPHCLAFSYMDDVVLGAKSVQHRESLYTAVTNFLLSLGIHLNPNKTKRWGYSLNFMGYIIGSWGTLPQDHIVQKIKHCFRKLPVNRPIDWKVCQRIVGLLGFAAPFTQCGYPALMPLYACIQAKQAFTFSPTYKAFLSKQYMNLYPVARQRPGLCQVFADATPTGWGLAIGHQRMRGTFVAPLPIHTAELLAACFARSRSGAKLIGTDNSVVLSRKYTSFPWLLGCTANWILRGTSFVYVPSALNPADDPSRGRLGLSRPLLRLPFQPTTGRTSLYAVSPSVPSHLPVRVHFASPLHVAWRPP
- Experimental Protocol: In vitro reverse transcription activity of HBV polymerase (ELISA-type, DIG/biotin nucleotides)
- Assay type: biochemical
- Conditions Used: 0.01 μg/ml test compound; read-out: Inhibition activity on HBV-RT (%)
Listed here: items and their measured inhibition at 0.01 µg/mL.
Returns: string containing the numeric result and its unit.

• CN1CCN(c2ccc([N+](=O)[O-])c(Nc3ccc4[nH]ncc4c3)n2)CC1 [Example 25] = 35%

Turning now to a further molecule:
Ask: Would you kindly share the measured inhibition at 0.01 µg/mL for C[C@@H](CCO)Nc1ccc([N+](=O)[O-])c(Nc2ccc3cn[nH]c3c2)n1 [Example 13] ?
Reply: 10%
